system: adipocytes; experiment: sensitisation of adipocytes to beta 3 agonist: 4 hour pre-incubation, then BRL 37344 for a further hour, lipolysis; assay type: cell-based, mouse; conditions: adipocytes; read-out: half-maximal concentration (lipolysis)
PROPERTY LABEL: EC50 (µM)
Could you give me the number in µM? Just the number is fine.

The compound listed as C[C@H](Cc1ccc(OCC(=O)O)cc1)NC[C@H](O)c1cccc(Cl)c1 [BRL 37344] shows EC50 equal to 0.05
